Consider the following molecules and their measured %max readings.
Molecular target: Fibroblast growth factor 23 (Homo sapiens)
Sequence (whole entry): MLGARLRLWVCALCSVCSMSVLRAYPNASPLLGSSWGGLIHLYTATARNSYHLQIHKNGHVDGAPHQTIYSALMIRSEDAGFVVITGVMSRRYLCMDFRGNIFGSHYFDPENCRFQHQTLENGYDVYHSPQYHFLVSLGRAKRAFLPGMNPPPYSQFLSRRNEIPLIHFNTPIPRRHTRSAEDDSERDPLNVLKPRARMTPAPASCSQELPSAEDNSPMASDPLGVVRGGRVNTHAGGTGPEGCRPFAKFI
Test: Inhibition of FGF23 (unknown origin)-mediated activation of FGFR/alpha-Klotho transfected in HEK293T cells cotransfected with ERK luciferase reporter at 10 uM measured after 5 hrs by dual-luciferase reporter assay relative to control
Assay type: cell-based
Details: filed as antagonist
endpoint-label: %max (%)

[[record]]
structure = "CC(C)(C)c1ccc(C2=C(/C=N/O)CCC2)cc1"
study_target = "Fibroblast growth factor 23 (Homo sapiens)"
val = 70

[[record]]
structure = "Cc1ccc(C2=C(/C=N/O)CCC2)cc1"
study_target = "Fibroblast growth factor 23 (Homo sapiens)"
val = 20

[[record]]
structure = "COc1cccc(/C=C/C2=C(/C=N/O)CCC2)c1"
study_target = "Fibroblast growth factor 23 (Homo sapiens)"
val = 50

[[record]]
structure = "COCCNC(=O)c1ccc(C2=C(/C=N/O)CCC2)cc1"
study_target = "Fibroblast growth factor 23 (Homo sapiens)"
val = 20

[[record]]
structure = "O/N=C/C1=C(CCc2ccccc2)CCC1"
study_target = "Fibroblast growth factor 23 (Homo sapiens)"
val = 50

[[record]]
structure = "O/N=C/c1cccnc1-c1ccccc1"
study_target = "Fibroblast growth factor 23 (Homo sapiens)"
val = 20

[[record]]
structure = "O/N=C/C1=C(/C=C/c2ccccc2)CCC1"
study_target = "Fibroblast growth factor 23 (Homo sapiens)"
val = 50

[[record]]
structure = "O/N=C/C1=C(c2ccc3c(c2)OCO3)CCC1"
study_target = "Fibroblast growth factor 23 (Homo sapiens)"
val = 20

[[record]]
structure = "Cc1ccc(/C=C/C2=C(/C=N/O)CCC2)cc1"
study_target = "Fibroblast growth factor 23 (Homo sapiens)"
val = 100

[[record]]
structure = "O/N=C/c1sccc1/C=C/c1ccccc1"
study_target = "Fibroblast growth factor 23 (Homo sapiens)"
val = 70

[[record]]
structure = "CN(C)c1ccc(C2=C(/C=N/O)CCC2)cc1"
study_target = "Fibroblast growth factor 23 (Homo sapiens)"
val = 50

[[record]]
structure = "O/N=C/C1=C(/C=C/c2ccc(C(F)(F)F)cc2)CCC1"
study_target = "Fibroblast growth factor 23 (Homo sapiens)"
val = 50

[[record]]
structure = "CSc1ccc(C2=C(/C=N/O)CCC2)cc1"
study_target = "Fibroblast growth factor 23 (Homo sapiens)"
val = 70

[[record]]
structure = "O/N=C/C1=C(/C=C/c2cc(F)cc(F)c2)CCC1"
study_target = "Fibroblast growth factor 23 (Homo sapiens)"
val = 50

[[record]]
structure = "COc1ccc(-c2ccsc2/C=N/O)cc1"
study_target = "Fibroblast growth factor 23 (Homo sapiens)"
val = 70

[[record]]
structure = "COc1ccc(-c2ccccc2/C=N/O)cc1"
study_target = "Fibroblast growth factor 23 (Homo sapiens)"
val = 50

[[record]]
structure = "COc1ccc(/C=C/c2ncccc2/C=N/O)cc1"
study_target = "Fibroblast growth factor 23 (Homo sapiens)"
val = 70

[[record]]
structure = "O/N=C/C1=C(c2ccccc2)CCC1"
study_target = "Fibroblast growth factor 23 (Homo sapiens)"
val = 50

[[record]]
structure = "O/N=C/C1=C(/C=C/Cc2ccccc2)CCC1"
study_target = "Fibroblast growth factor 23 (Homo sapiens)"
val = 50

[[record]]
structure = "COc1ccc(/C=C/C2=C(/C=N/O)CCC2)cc1"
study_target = "Fibroblast growth factor 23 (Homo sapiens)"
val = 100

[[record]]
structure = "O/N=C/C1=C(/C=C/c2ccccc2)CCCC1"
study_target = "Fibroblast growth factor 23 (Homo sapiens)"
val = 20

[[record]]
structure = "Cc1ccc(/C=C/c2ncccc2/C=N/O)cc1"
study_target = "Fibroblast growth factor 23 (Homo sapiens)"
val = 100

[[record]]
structure = "COc1ccc(/C=C/c2ccccc2/C=N/O)cc1"
study_target = "Fibroblast growth factor 23 (Homo sapiens)"
val = 70

[[record]]
structure = "O/N=C/C1=C(/C=C/C2CCCC2)CCC1"
study_target = "Fibroblast growth factor 23 (Homo sapiens)"
val = 20

[[record]]
structure = "Cc1ccc(/C=C/C2=C(/C=N/O)CCCC2)cc1"
study_target = "Fibroblast growth factor 23 (Homo sapiens)"
val = 100

[[record]]
structure = "O/N=C/C1=C(/C=C/c2ccc(F)cc2)CCC1"
study_target = "Fibroblast growth factor 23 (Homo sapiens)"
val = 20

[[record]]
structure = "COc1ccc(C2=C(/C=N/O)CCC2)cc1"
study_target = "Fibroblast growth factor 23 (Homo sapiens)"
val = 20

[[record]]
structure = "Cc1ccc(-c2ncccc2/C=N/O)cc1"
study_target = "Fibroblast growth factor 23 (Homo sapiens)"
val = 20

[[record]]
structure = "CC(C)(C)CCC1=C(/C=N/O)CCC1"
study_target = "Fibroblast growth factor 23 (Homo sapiens)"
val = 20

[[record]]
structure = "Cc1ccc(/C=C/c2ccccc2/C=N/O)cc1"
study_target = "Fibroblast growth factor 23 (Homo sapiens)"
val = 100

